Sourced from patent US20240166630A1

test-description: In vivo pharmacokinetics in male C57BL/6 mice
Design: species or system mouse
cond: male, C57BL/6, mouse, plasma, iv, 9.92 mg/kg, 9.92 mg/kg i.v., Mean ± SD, read-out: AUC0-tlast
parameter: AUC(0-t) (ng·h/mL)
Hi! Could you send only the number? It should be in ng·h/mL, unit omitted.

Challenge: Give AUC(0-t) for [2H]C([2H])(c1c[nH]c2ccccc12)[C@H]1CCCN1C([2H])([2H])[2H]
Response given: 4000

----------
test-description: Liver microsomes stability with NADPH, rat
cond: rat, microsomes
# key: entry, value: log10(half-life at 2 μM)
Log scale reminder: half-life at 2 μM in min, then log10 taken.

Please review the following examples before continuing.
compound	log10(half-life at 2 μM)
CN(C)CCc1c[nH]c2ccccc12 [DMT, N,N-dimethyltryptamine, reference compound]	1.36
[2H]C([2H])(c1c[nH]c2ccccc12)[C@H]1CCCN1C([2H])([2H])[2H]	1.57
[2H]C([2H])(c1c[nH]c2ccccc12)[C@H]1CCCN1	1.64
[2H]C([2H])([2H])Oc1ccc2[nH]cc(C[C@H]3CCCN3)c2c1	2.72

API: the following record is the query input.
Challenge: Entry [2H]C([2H])(c1c[nH]c2ccccc12)[C@H]1CCCN1C needs its log10(half-life at 2 μM) filled in; supply it.
Response given: 0.94

----------
test-description: In vivo pharmacokinetics in male C57BL/6 mice
Design: species or system mouse
cond: male, C57BL/6, mouse, plasma, iv, 9.92 mg/kg, 9.92 mg/kg i.v., individual animals M10-M12, read-out: AUC0-inf
parameter: AUC(0-inf) (ng·h/mL)
Unit ng·h/mL implied. Number only.

Challenge: Look up and state reported AUC(0-inf) for [2H]C([2H])(c1c[nH]c2ccccc12)[C@H]1CCCN1C([2H])([2H])[2H]
Response given: 3850

----------
test-description: In vivo pharmacokinetics in male C57BL/6 mice
Parameters: species or system mouse
cond: male, C57BL/6, mouse, plasma, iv, 9.92 mg/kg, 9.92 mg/kg i.v., Mean ± SD, read-out: Apparent t1/2 (converted)
parameter: half-life (h)
Answer with a number only, understood to be in h.

Challenge: Output measured half-life for this item: [2H]C([2H])(c1c[nH]c2ccccc12)[C@H]1CCCN1C([2H])([2H])[2H]
Response given: 2.17

----------
test-description: In vivo pharmacokinetics in male C57BL/6 mice
Set-up: species or system mouse
cond: male, C57BL/6, mouse, plasma, po, 9.92 mg/kg, 9.92 mg/kg p.o., individual animals M13-M15, read-out: Cmax
parameter: Cmax (µg/mL)
Your answer should be a plain number; it is taken to be in µg/mL.

Challenge: Read the entry [2H]C([2H])(c1c[nH]c2ccccc12)[C@H]1CCCN1C([2H])([2H])[2H] and write its reported Cmax.
Response given: 0.308

----------
test-description: In vivo pharmacokinetics in male C57BL/6 mice
Parameters: species or system mouse
cond: male, C57BL/6, mouse, plasma, iv, 9.92 mg/kg, 9.92 mg/kg i.v., individual animals M10-M12, read-out: MRT0-inf
parameter: MRT inf

Challenge: Supply MRT inf value. Item: [2H]C([2H])(c1c[nH]c2ccccc12)[C@H]1CCCN1C([2H])([2H])[2H]
Response given: 2.26 h

----------
test-description: Liver microsomes stability with NADPH, human
cond: human liver microsomes, with NADPH, 2 μM
# Remaining Percentage (%) after 60 min Human listing for each entry below
Report the figure in % without appending any unit label.

Record excerpt, results attached:
compound	assay-result
COc1ccc2[nH]cc(CCN(C)C)c2c1 [Compound 5-MeO-DMT, 5-methoxy-N,N-dimethyltryptamine, reference compound]	4.82
CN(C)CCc1c[nH]c2ccccc12 [DMT, N,N-dimethyltryptamine, reference compound]	0.72
[2H]C([2H])([2H])Oc1ccc2[nH]cc(C[C@H]3CCCN3C([2H])([2H])[2H])c2c1	85.35

Shift focus to the following entry.
Challenge: For [2H]C([2H])(c1c[nH]c2ccccc12)[C@H]1CCCN1C , write its Remaining Percentage (%) after 60 min Human.
Response given: 64.96

----------
test-description: In vivo pharmacokinetics in male C57BL/6 mice
Design: species or system mouse
cond: male, C57BL/6, mouse, plasma, iv, 9.92 mg/kg, 9.92 mg/kg i.v., Mean ± SD, read-out: MRT0-inf
Description: Animals: Male C57BL/6 mice (25-30 g) from Charles River Labs were acclimatized for a minimum of 5 days prior to dosing. Body weights were recorded on the day of dosing. Food restriction: Animals dosed p.o. were deprived of food overnight and fed ˜2 h following dosing. Dosing: Formulations were administered intravenously (i.v.) via the tail vein or orally (p.o.) by gavage with disposable feeding needles. Sample collection: Serial blood samples was collected via tail snip. […]
parameter: MRT inf (h)
Answer with a number only, understood to be in h.

Challenge: Hello, please tell me recorded MRT inf for this one: [2H]C([2H])(c1c[nH]c2ccccc12)[C@H]1CCCN1C([2H])([2H])[2H] [I-B-1]
Response given: 2.43

----------
test-description: Liver microsomes stability with NADPH, human
cond: human, microsomes
Reported half-life at 2 μM values for a set of molecules

molecule	parameter	assay-result
[2H]C([2H])(c1c[nH]c2ccccc12)[C@H]1CCCN1C [I-B-2]	half-life at 2 μM	1.61 h
[2H]C([2H])(c1c[nH]c2ccc(OC)cc12)[C@H]1CCCN1 [I-B-16]	half-life at 2 μM	4.38 h
[2H]C([2H])([2H])Oc1ccc2[nH]cc(C[C@H]3CCCN3C([2H])([2H])[2H])c2c1 [I-B-11]	half-life at 2 μM	4.38 h
[2H]C([2H])(c1c[nH]c2ccc(OC)cc12)[C@H]1CCCN1C [I-B-10]	half-life at 2 μM	2.82 h

Challenge: Read the entry [2H]C([2H])([2H])Oc1ccc2[nH]cc(C([2H])([2H])[C@H]3CCCN3C([2H])([2H])[2H])c2c1 [I-B-12] and write its reported half-life at 2 μM.
Response given: 2.82 h

Challenge: In one line, give reported half-life at 2 μM of the entry [2H]C([2H])(c1c[nH]c2ccccc12)[C@H]1CCCN1 [I-B-8] .
Response given: 7.44 h

Challenge: Answer with the recorded half-life at 2 μM for the molecule listed here: [2H]C([2H])(c1c[nH]c2ccccc12)[C@H]1CCCN1C([2H])([2H])[2H] [I-B-1]
Response given: 3.66 h

----------
test-description: In vivo pharmacokinetics in male Sprague Dawley rats
Parameters: species or system rat
cond: male, Sprague Dawley, rat, plasma, sc, 0.992 mg/kg, 0.992 mg/kg s.c., Mean ± SD, read-out: AUC0-tlast
Excerpt: Example 13 (I-B-1): In Vivo Assessment of the Pharmacokinetics in Mice and Rats 5. PK Analysis • i. Analysis software: Phoenix® WinNonlin® 8.2 (Pharsight, Certara, Mountainview, CA) • ii. Analysis methods: non-compartmental analysis, linear up/log down trapezoidal rule • iii. PK parameters: C0, t1/2, AUC0-tlast. AUC0-∞, CL, Vss, MRT, tmax(po), Cmax(po), F, as appropriate
parameter: AUC(0-t) (ng·h/mL)
// units = ng·h/mL; emit number, no label

Challenge: Look up and state reported AUC(0-t) for [2H]C([2H])(c1c[nH]c2ccccc12)[C@H]1CCCN1C([2H])([2H])[2H]
Response given: 136

----------
test-description: In vivo pharmacokinetics in male C57BL/6 mice
Design: species or system mouse
cond: male, C57BL/6, mouse, plasma, sc, 9.92 mg/kg, 9.92 mg/kg s.c., individual animals M16-M18, read-out: Cmax
parameter: Cmax (ng/mL)
Provide the reading as a plain figure in ng/mL.

Challenge: Answer with the recorded Cmax for the compound listed here: [2H]C([2H])(c1c[nH]c2ccccc12)[C@H]1CCCN1C([2H])([2H])[2H]
Response given: 1680

----------
test-description: In vivo pharmacokinetics in male C57BL/6 mice
Parameters: species or system mouse
cond: male, C57BL/6, mouse, plasma, po, 9.92 mg/kg, 9.92 mg/kg p.o., individual animals M13-M15, read-out: AUC0-inf
parameter: AUC(0-inf) (ng·h/mL)
Quick note: give the figure in ng·h/mL, leave out the unit.

Challenge: Tell me its AUC(0-inf) given [2H]C([2H])(c1c[nH]c2ccccc12)[C@H]1CCCN1C([2H])([2H])[2H] as the entry.
Response given: 1630

----------
test-description: In vivo pharmacokinetics in male C57BL/6 mice
Design: species or system mouse
cond: male, C57BL/6, mouse, plasma, sc, 9.92 mg/kg, 9.92 mg/kg s.c., Mean ± SD, read-out: tmax
parameter: tmax (min)
Please respond with the number in min and leave the unit unwritten.

Challenge: // fetch tmax given entry [2H]C([2H])(c1c[nH]c2ccccc12)[C@H]1CCCN1C([2H])([2H])[2H]
Response given: 15
